Source listed as ChEMBL document CHEMBL2021895.

# TEST: Inhibition of sheep brain tubulin polymerization using DAPI by fluorescence assay
# Parameters: species or system Ovis aries
MEASURE_NAME: IC50 (nM)
Answers are plain numbers, in nM.

IC50 recorded for this compound, C=C(c1ccc(OC)c(O)c1)c1cc(OC)c(OC)c(OC)c1 , is 2200
